Items are presented alongside their recorded inhibition.
Molecular target: MAP kinase-interacting serine/threonine-protein kinase 2 (Homo sapiens) (UniProt Q9HBH9)
Sequence (Q9HBH9 whole entry, looked up): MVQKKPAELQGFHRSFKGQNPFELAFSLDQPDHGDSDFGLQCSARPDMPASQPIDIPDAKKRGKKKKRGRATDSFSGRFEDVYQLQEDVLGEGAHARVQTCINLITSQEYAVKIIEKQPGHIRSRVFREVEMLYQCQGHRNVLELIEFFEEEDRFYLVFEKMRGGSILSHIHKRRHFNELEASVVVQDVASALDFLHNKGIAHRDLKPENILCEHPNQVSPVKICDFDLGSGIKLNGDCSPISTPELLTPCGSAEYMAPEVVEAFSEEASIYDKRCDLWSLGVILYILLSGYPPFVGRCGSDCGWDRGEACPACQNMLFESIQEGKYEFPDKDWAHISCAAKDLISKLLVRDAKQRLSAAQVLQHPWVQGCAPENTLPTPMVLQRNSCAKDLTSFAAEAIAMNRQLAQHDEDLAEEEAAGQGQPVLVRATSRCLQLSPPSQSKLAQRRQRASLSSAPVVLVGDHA
Conditions: at 1 µM
Description: GSK_PKIS: MNK2 mean inhibition at 1 uM [Nanosyn]
Lab note: write values as number then unit, every time.

INSERT INTO results (compound, experimental_target, property_label, recorded_result) VALUES
  ('CC1=C(C(=O)Nc2ccc3[nH]ncc3c2)C(c2ccc(F)cc2)N=C(c2ccc(C(F)(F)F)nc2)N1 (stereo not drawn)', 'MAP kinase-interacting serine/threonine-protein kinase 2 (Homo sapiens) (UniProt Q9HBH9)', 'inhibition', '3.32%'),
  ('COc1cc(N2CCN(C(C)C)CC2)ccc1Nc1nc(Nc2cccc3ncccc23)c2cc[nH]c2n1', 'MAP kinase-interacting serine/threonine-protein kinase 2 (Homo sapiens) (UniProt Q9HBH9)', 'inhibition', '1.91%');

Consider the compound shown here: O=C1Nc2ccccc2/C1=C1\CCc2cc(O)ccc21 What is its recorded inhibition? 15.9%

Consider the compound shown here: CS(=O)(=O)CCNCc1ccoc1-c1ccc2ncnc(Nc3ccc(OCc4ccccc4)cc3)c2c1 What is its recorded inhibition? 5.82%

----------
Items are presented alongside their recorded inhibition.
Target: Receptor tyrosine-protein kinase erbB-2 (Homo sapiens);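 note: each value is the mean percent inhibition of ERBB2 over replicate measurements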
Conditions: at 0.1 µM
Give the quantity in %, number only.

Solved entries:
INSERT INTO results (compound, property_label, recorded_result) VALUES
  ('O=C(O[C@H]1CN[C@H](C#Cc2cc3ncnc(Nc4ccc5c(ccn5Cc5cc(F)ccc5F)c4)c3s2)C1)N1CCOCC1', 'inhibition', 9.01),
  ('Cc1nnc(-c2cccc(-c3ccc(C(=O)NCC4CC4)cc3)c2)o1', 'inhibition', 2.59),
  ('O=C(O[C@H]1CN[C@H](C#Cc2cc3ncnc(Nc4ccc(OCc5cccc(F)c5)c(Cl)c4)c3s2)C1)N1CCOCC1', 'inhibition', 6.98),
  ('COc1ccc(Nc2ncc(-c3ccccc3)o2)cc1OC', 'inhibition', 0.01),
  ('CCS(=O)(=O)c1ccc(OC)c(Nc2ncc(-c3cccc(F)c3)o2)c1', 'inhibition', 38.7);

Consider the compound shown here: O=C(Nc1n[nH]c2nnc(-c3cccnc3)cc12)C1CC1 What is its recorded inhibition? -2.7

Consider the compound shown here: COc1ccc(-c2nn3ncccc3c2-c2ccnc(Nc3ccc(F)c(F)c3)n2)cc1 What is its recorded inhibition? 4.95

Consider the compound shown here: NC(=O)c1ccc2c(-c3ccnc(NCCCO)n3)c(-c3ccc(F)cc3)nn2c1 What is its recorded inhibition? 2.1

Consider the compound shown here: COc1cccc(Nc2nccc(-c3cnn4ncccc34)n2)c1 What is its recorded inhibition? -0.16

Consider the compound shown here: CC1=C(C(=O)Nc2ccc3[nH]nc(C)c3c2)C(c2ccc(C(F)(F)F)cc2)CC(=O)N1 (stereo not given) What is its recorded inhibition? 0.35

----------
Target: Receptor tyrosine-protein kinase erbB-4 (Homo sapiens) (UniProt Q15303);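 note: values are averaged percent inhibition of ERBB4 kinase activity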
Sequence (Q15303 whole entry): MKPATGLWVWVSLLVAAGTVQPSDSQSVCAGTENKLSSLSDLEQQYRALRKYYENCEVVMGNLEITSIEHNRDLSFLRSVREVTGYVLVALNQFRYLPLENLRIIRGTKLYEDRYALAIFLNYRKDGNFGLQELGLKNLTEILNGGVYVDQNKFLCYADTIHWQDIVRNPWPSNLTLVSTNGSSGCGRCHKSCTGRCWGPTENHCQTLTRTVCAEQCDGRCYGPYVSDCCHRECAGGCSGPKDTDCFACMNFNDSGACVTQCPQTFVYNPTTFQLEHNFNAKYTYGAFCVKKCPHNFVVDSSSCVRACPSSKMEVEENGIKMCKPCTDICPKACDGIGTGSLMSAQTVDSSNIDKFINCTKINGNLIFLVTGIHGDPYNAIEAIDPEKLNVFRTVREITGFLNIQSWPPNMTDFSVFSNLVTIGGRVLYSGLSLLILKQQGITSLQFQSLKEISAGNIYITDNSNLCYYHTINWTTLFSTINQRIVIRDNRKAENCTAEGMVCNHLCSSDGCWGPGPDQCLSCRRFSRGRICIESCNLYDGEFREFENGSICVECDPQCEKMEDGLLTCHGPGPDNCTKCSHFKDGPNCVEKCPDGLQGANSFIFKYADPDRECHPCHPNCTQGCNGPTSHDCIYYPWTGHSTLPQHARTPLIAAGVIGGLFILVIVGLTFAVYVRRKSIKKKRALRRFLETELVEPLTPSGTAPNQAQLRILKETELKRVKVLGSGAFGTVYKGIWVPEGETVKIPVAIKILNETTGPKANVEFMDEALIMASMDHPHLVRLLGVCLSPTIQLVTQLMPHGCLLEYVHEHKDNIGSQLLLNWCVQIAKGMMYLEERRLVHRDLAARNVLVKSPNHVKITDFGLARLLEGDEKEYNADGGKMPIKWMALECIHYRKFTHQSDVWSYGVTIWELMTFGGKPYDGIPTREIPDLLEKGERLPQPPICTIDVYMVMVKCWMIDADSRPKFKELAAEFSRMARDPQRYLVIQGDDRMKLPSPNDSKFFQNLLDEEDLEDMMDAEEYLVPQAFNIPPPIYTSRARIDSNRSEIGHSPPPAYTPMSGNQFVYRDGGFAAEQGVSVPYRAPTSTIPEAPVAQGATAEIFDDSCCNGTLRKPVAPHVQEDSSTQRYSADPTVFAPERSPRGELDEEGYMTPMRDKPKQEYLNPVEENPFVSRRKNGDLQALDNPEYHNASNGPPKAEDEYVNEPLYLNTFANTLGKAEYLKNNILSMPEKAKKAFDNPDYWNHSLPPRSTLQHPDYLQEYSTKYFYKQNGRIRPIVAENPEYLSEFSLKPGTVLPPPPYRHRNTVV
Conditions: at 0.1 µM
Items are presented alongside their recorded inhibition.
Give the quantity in %, number only.

Consider the compound shown here: O=C(Nc1n[nH]c2nnc(-c3cccnc3)cc12)C1CC1 What is its recorded inhibition? -0.62

Consider the compound shown here: CCOc1ccc2c(-c3ccnc(Nc4cc(OC)cc(C(F)(F)F)c4)n3)cnn2n1 What is its recorded inhibition? 4.82

Consider the compound shown here: COc1ccc2ncn(-c3cc(O[C@H](C)c4ccccc4C(F)(F)F)c(C(N)=O)s3)c2c1 What is its recorded inhibition? 1.06

Consider the compound shown here: Cc1c2ccc(N(C)c3ccnc(Nc4cccc(S(N)(=O)=O)c4)n3)cc2nn1C What is its recorded inhibition? 5.59

Consider the compound shown here: CCN1CCC(C(=O)Nc2n[nH]c3nnc(-c4cccc(F)c4F)cc23)CC1 What is its recorded inhibition? -0.85

Consider the compound shown here: CN1CCC(n2cnc(-c3ccc(F)cc3)c2-c2ccnc(NCCO)n2)CC1 What is its recorded inhibition? 9.26

Consider the compound shown here: NS(=O)(=O)c1cccc(N/C=C2\C(=O)Nc3ccccc32)c1 What is its recorded inhibition? 13.3

Consider the compound shown here: CCn1c(-c2nonc2N)nc2cncc(C(=O)NCCNC)c21 What is its recorded inhibition? 10.7

Consider the compound shown here: NC(=O)c1ccc2c(-c3ccnc(NCCCO)n3)c(-c3ccc(F)cc3)nn2c1 What is its recorded inhibition? 16.8

Consider the compound shown here: O=C(O[C@H]1CN[C@H](C#Cc2cc3ncnc(Nc4ccc5c(cnn5Cc5ccccc5)c4)c3s2)C1)N1CCOCC1 What is its recorded inhibition? 107
